Biological target: m-NTPDase8 (Mus musculus)
Construct: made in house; host or cells: COS-7 cells, transient transfection; crude protein extract after sonication
Sequence (Q8K0L2 whole entry): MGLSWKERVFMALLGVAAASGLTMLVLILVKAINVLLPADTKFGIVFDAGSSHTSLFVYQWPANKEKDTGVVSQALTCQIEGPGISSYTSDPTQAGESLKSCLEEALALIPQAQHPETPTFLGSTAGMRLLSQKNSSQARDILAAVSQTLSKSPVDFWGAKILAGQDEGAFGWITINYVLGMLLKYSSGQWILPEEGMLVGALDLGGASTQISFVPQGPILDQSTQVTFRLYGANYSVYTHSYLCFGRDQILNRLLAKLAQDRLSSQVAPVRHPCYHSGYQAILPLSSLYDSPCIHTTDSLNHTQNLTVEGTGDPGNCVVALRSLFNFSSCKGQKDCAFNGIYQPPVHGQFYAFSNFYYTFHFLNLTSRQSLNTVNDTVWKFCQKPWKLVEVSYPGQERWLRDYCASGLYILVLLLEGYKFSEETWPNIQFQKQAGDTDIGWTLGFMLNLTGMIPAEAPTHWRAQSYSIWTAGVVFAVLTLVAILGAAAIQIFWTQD
Assay: m-NTPDase8 inhibition, malachite green assay
Type: biochemical
Readout kind: Ki (µM)

I: COc1cccc(NC(=S)N/N=C2\C(=O)Nc3ccccc32)c1
II: O=C1Nc2ccccc2/C1=N/NC(=S)Nc1ccc(F)cc1
query: Please indicate which entry, I or II , has the lower recorded Ki value. Answer by quoting the chosen item's label.
result: II
(II: 0.17 µM, I: 0.44 µM)

###

Biological target: h-NTPDase2 (Homo sapiens, UniProt Q9Y5L3)
Construct: made in house; host or cells: COS-7 cells, transient transfection; crude protein extract after sonication
Sequence (Q9Y5L3 1-495): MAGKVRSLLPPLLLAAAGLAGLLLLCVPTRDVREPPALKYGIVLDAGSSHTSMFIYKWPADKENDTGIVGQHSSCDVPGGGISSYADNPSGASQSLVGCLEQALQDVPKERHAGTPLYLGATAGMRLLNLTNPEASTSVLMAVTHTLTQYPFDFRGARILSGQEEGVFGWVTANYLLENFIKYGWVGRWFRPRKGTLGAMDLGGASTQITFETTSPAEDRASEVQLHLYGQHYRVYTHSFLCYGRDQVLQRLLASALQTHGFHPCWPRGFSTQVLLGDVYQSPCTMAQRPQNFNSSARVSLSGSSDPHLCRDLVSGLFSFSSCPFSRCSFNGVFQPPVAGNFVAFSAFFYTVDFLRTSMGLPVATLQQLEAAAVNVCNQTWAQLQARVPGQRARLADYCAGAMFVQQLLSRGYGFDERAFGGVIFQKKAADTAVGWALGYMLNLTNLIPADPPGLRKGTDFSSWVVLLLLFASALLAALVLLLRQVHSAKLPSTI
Assay: h-NTPDase2 inhibition, malachite green assay
Type: biochemical
Conditions: compound 100 µM
Readout kind: inhibition at 100 µM (%)

Record excerpt, results attached:
query: What measured inhibition at 100 µM goes with CCNC(=S)N/N=C1\C(=O)Nc2ccccc21 ?
result: 42

query: Field entry: O=C1Nc2ccccc2/C1=N/NC(=S)Nc1ccc(F)cc1
result: 48

query: Field entry: O=C1Nc2ccccc2/C1=N/NC(=S)Nc1cccc(Cl)c1
result: 29

query: Field entry: Cc1ccc(NC(=S)N/N=C2\C(=O)Nc3ccccc32)cc1
result: 17

P: O=C1Nc2ccccc2/C1=N/NC(=S)Nc1ccccc1
Q: O=C1Nc2ccccc2/C1=N/NC(=S)Nc1ccc(Cl)cc1
query: Could you please tell me which of these two has the higher inhibition at 100 µM: P or Q ? Answer by quoting the chosen item's label.
result: Q
(Q: 46%, P: 24%)

###

Target: h-NTPDase2 (Homo sapiens, UniProt Q9Y5L3)
Construct: made in house; host or cells: COS-7 cells, transient transfection; crude protein extract after sonication
Sequence (Q9Y5L3 1-495): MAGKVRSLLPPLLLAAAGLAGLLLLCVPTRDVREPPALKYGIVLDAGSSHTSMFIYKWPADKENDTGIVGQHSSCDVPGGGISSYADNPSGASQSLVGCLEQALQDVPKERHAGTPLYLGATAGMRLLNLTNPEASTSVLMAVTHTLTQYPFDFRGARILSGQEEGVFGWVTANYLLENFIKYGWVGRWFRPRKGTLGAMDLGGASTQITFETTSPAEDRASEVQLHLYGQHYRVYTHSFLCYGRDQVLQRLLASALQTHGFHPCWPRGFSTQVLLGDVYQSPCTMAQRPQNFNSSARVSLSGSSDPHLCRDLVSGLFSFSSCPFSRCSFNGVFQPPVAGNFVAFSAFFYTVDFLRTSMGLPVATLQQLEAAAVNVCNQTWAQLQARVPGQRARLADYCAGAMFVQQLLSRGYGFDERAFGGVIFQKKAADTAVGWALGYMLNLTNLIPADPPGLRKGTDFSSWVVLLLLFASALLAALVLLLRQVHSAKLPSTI
Test: h-NTPDase2 inhibition, malachite green assay
Format: biochemical
Conditions: compound 100 µM
Readout kind: inhibition at 100 µM

Record excerpt, results attached:
query: Form field - read-out: inhibition at 100 µM; system: h-NTPDase2 (Homo sapiens, UniProt Q9Y5L3); submitted item: COc1cccc(NC(=S)N/N=C2\C(=O)Nc3ccccc32)c1
result: < 50%

query: Field entry: O=C1Nc2ccccc2/C1=N/NC(=S)NCc1ccccc1
result: < 50%

API: the following record is the query input.
query: Form field - read-out: inhibition at 100 µM; system: h-NTPDase2 (Homo sapiens, UniProt Q9Y5L3); submitted item: O=C1Nc2ccccc2/C1=N/NC(=S)Nc1c(F)cccc1F
result: < 50%
